These measurements were taken from patent US11708351B2.

# target_or_test_system: Human Factor D (Homo sapiens (Human), UniProt P00746)
# Sequence (P00746 26-253): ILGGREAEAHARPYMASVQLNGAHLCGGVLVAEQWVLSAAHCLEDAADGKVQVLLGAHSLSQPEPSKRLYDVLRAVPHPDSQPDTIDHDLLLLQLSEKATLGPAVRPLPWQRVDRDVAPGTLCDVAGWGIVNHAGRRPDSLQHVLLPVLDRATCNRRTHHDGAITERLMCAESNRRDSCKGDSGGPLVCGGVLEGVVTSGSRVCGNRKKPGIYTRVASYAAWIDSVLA
# assay_procedure: Human Factor D Assay
# Type: biochemical
# stated_conditions: Table 6; Factor D 80 nM, substrate Z-L-Lys-SBzl; read-out: IC50
pIC50: −log10 of the molar value.
endpoint_name: pIC50

1. CC(=O)c1c2cc(-c3cnc(C)nc3)cc(C(F)(F)F)c2nn1CC(=O)N1[C@H](C(=O)Nc2nc(Br)ccc2C)C[C@@]2(C)C[C@@H]12 ... < 5.00
2. CC(=O)c1nn(CC(=O)N2C[C@H]3C[C@H]3[C@H]2C(=O)N2C[C@H]3C[C@H]3[C@H]2C(=O)Nc2nc(Br)ccc2C)c2c(C)cc(-c3cnc(C)nc3)cc12 ... 5.00 to 6.00
3. CC(=O)c1nn(CC(=O)N2[C@H](C(=O)O)C[C@@]3(C)C[C@@H]23)c2c(C)cc(-c3cnc(C)nc3)cc12 ... < 5.00
4. CC(=O)c1nn(CC(=O)N2[C@H](C(=O)Nc3nc(Br)ccc3C)C[C@@]3(C)C[C@@H]23)c2c(CN(C)C)cc(-c3cnc(C)nc3)cc12 ... > 6.00

---

# target_or_test_system: Human Factor D (Homo sapiens (Human), UniProt P00746)
# assay_procedure: Human Factor D Assay
# Format: biochemical
# stated_conditions: Factor D inhibition, assay of Example 10; read-out: IC50 (Stars)
pIC50: −log10 of the molar value.
endpoint_name: pIC50

1) CC(=O)c1nn(CC(=O)N2[C@H](C(=O)Nc3nc(Br)c(F)cc3C)C[C@@]3(CC#N)C[C@@H]23)c2cnc(-c3cnc(C)nc3)cc12 ... > 6.00
2) COCc1ncc(-c2ccc3c(c2)c(C(C)=O)nn3CC(=O)N2[C@H](C(=O)Nc3nc(Br)ccc3C)C[C@@]3(C)C[C@@H]23)cn1 ... > 6.00
3) CC(=O)c1nn(CC(=O)N(C(=O)[C@@H]2C[C@@]3(C)C[C@H]3N2)c2cccc(Br)n2)c2cnc(-c3cnc(C)nc3)cc12 ... > 6.00

---

# target_or_test_system: Human Factor D (Homo sapiens (Human))
# assay_procedure: Human Factor D Assay
# Type: biochemical
# stated_conditions: Table 7; Factor D inhibition, assay of Example 10; read-out: IC50 (Stars)
pIC50: −log10 of the molar value.
endpoint_name: pIC50

1. CC(=O)c1nn(CC(=O)N2[C@H](C(=O)Nc3cc(-c4ccccc4O)cc(Br)n3)C[C@@]3(C)C[C@@H]23)c2ccc(-c3cnc(C)nc3)cc12 [Compound 556] ... > 6.00
